System: Panc 05.04 cells (SF3b K700E mutant)
Test: Cell proliferation and viability, CellTiter-Glo, 72 hours
Type: cell-based
Conditions: 72 h; PANC0504.1; -100% = cidal, 0% = static, 100% = uninhibited growth
In this section we review reported CTGlo-ATS Mean MinResponse % 72 h PANC0504.1 values for a set of compounds.
Supply the numeric figure in %, leaving out any unit text.

# get_value(readout='CTGlo-ATS Mean MinResponse % 72 h PANC0504.1', item= C/C(=C\c1cc(F)cc(S(=O)(=O)N2CCCC2)c1)[C@H]1OC(=O)C[C@H](O)CC[C@H](C)[C@@H](OC(=O)N2CCN(C)CC2)/C=C/[C@@H]1C )
−91.100

# get_value(readout='CTGlo-ATS Mean MinResponse % 72 h PANC0504.1', item= C/C(=C\c1cccc(S(=O)(=O)NC(C)(C)CO)c1)[C@H]1OC(=O)C[C@H](O)CC[C@H](C)[C@@H](OC(=O)N2CCN(C)CC2)/C=C/[C@@H]1C )
−91.697

# get_value(readout='CTGlo-ATS Mean MinResponse % 72 h PANC0504.1', item= C/C(=C\c1cc(F)cc(N2CCOCC2)c1)[C@H]1OC(=O)C[C@H](O)CC[C@H](C)[C@@H](OC(=O)N2CCC(N3CCCCC3)CC2)/C=C/[C@@H]1C )
−91.709
